Each entry below carries its measured Kd, system: Polyphosphate kinase 1 (PPK1) (Escherichia coli, UniProt P0A7B1).
Sequence (P0A7B1 2-688): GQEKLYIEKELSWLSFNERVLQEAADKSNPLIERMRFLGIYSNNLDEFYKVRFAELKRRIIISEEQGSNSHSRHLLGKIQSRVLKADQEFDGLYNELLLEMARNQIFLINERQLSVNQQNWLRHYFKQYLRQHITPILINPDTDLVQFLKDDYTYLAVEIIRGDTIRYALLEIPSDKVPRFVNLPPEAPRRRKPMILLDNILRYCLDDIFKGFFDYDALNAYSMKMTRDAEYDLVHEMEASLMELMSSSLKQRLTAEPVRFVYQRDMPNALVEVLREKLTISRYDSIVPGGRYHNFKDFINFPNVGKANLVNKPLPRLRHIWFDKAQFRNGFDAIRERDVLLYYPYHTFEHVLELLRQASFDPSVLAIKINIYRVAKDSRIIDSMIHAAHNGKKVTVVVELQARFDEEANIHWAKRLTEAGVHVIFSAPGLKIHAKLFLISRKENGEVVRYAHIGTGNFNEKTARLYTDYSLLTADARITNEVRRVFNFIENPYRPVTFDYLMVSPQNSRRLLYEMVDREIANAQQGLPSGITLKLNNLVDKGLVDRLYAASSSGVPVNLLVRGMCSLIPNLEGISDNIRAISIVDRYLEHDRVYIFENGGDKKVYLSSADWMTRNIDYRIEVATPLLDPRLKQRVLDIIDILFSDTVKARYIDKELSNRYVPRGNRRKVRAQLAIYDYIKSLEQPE
observed property: Kd (µM)

{"columns": ["test smiles", "system", "Kd, µM"],
 "data": [
  ["Cc1ccc(C(=O)Nc2ccc(Cl)cc2)cc1C(F)(F)F", "Polyphosphate kinase 1 (PPK1) (Escherichia coli, UniProt P0A7B1)", 84.6],
  ["O=[N+]([O-])c1ccc2nc(-c3ccc(Cl)cc3)[nH]c2c1", "Polyphosphate kinase 1 (PPK1) (Escherichia coli, UniProt P0A7B1)", 85.8]
]}
